Where do these numbers come from? They come from patent US11149036B2.

Form field: EC50 (one value per entry).
biological target: UniProt P08173; experiment: human FLIPR-based M4 PAM assay (CHO-K1 cells with human M4 receptor and Gaqi5, calcium dye fluorescence); details: inflection point (IP) of dose response curve, acetylcholine added at 20% of maximum response, read-out: M4 FLIPPR Hu IP
Could you give me the number in nM? Just the number is fine.

Some solved entries appear below for comparison.
CC1(Cn2cc(-c3cc(F)c(C#N)nc3-c3ccn4ccnc4c3)cn2)CCCC1 : 11
Cc1ccc(-c2cnn(CC3CCCC3)c2)c(-c2ccc(CCCO)cc2)n1 : 54
Cn1nc2ccc(-c3nc(C#N)ccc3-c3cnn(CC4(C)CCCC4)c3)cc2n1 : 76
N#Cc1ccc(-c2cnn(CC3(F)CCCC3)c2)c(-c2ccn3cnnc3c2)n1 : 32
Cc1cc(-c2cnn(CC3(F)CCCC3)c2)c(-c2cnc3c(c2)ncn3C)nc1C#N : 104

Qu. Recorded EC50 for COc1cc2ccc(-c3nc(C)ccc3-c3cnn(CC4(C)CCC(F)(F)C4)c3)cc2nn1 (single isomer, unassigned) [Example 150] , please?
Ans. 22

Qu. So what's the measured EC50 for this one? N#Cc1ccc(-c2cnn(CC3(F)CCCC3)c2)c(-c2ccn3cc(Cl)nc3c2)n1
Ans. 10

Qu. Look up EC50 for this molecule: Cc1cc(-c2cnn(CC3(C)CCCC3)c2)c(-c2ccn3ccnc3c2)nc1F
Ans. 34

----------
molecular target: human M4 muscarinic acetylcholine receptor (Homo sapiens); assay: human FLIPR-based M4 PAM assay (CHO-K1 cells with human M4 receptor and Gaqi5, calcium dye fluorescence); details: inflection point (IP) of dose response curve, acetylcholine added at 20% of maximum response, read-out: M4 FLIPPR Hu IP
Below: a set of entries, each annotated with reported EC50.
Expressed in nM, but write only the number.

Example entries and their recorded answers appear below.
Cc1ccc(-c2cnn(CC3CCCC3)c2)c(-c2ccc3cc(F)cnc3c2)n1 [Example 13] : 23
Cc1cc(-c2cnn(CC3(F)CCCC3)c2)c(-c2ccn3cnnc3c2)nc1Cl [Example 118] : 48
O=C1c2cc(-c3ncccc3-c3cnn(CC4(F)CCCC4)c3)ccc2CN1C1CCC1 [Example 139] : 17

Qu. What does the data say about its EC50? Entry: Cc1ccc(-c2cnn(CC3(F)CCCC3)c2)c(-c2ccc3c(c2)ncn3C)n1 [Example 16]
Ans. 34

Qu. What value of measured EC50 is listed for COc1cc2ccc(-c3nc(Cl)c(C)cc3-c3cnn(CC4(C)CCCC4)c3)cc2nn1 [Example 119] ?
Ans. 5

Qu. Which measured EC50 value corresponds to Cc1cc(-c2cnn(CC3(F)CCCC3)c2)c(-c2ccn3ccnc3c2)nc1F [Example 94] ?
Ans. 35

Qu. For Cn1cnc2cc(-c3ncc(Cl)cc3-c3cnn(CC4(C)CCCC4)c3)cnc21 [Example 109] , what is its reported EC50?
Ans. 69

Qu. EC50 for Cc1ccc(-c2cnn(CC3CCCC3)c2)c(-c2ccc3cc(N)nnc3c2)n1 [Example 158] ?
Ans. 19

----------
biological target: human M4 muscarinic acetylcholine receptor (Homo sapiens, UniProt P08173); assay: human FLIPR-based M4 PAM assay (CHO-K1 cells with human M4 receptor and Gaqi5, calcium dye fluorescence); settings: inflection point (IP) of dose response curve, acetylcholine added at 20% of maximum response, read-out: M4 FLIPPR Hu IP
Sequence (P08173 whole entry): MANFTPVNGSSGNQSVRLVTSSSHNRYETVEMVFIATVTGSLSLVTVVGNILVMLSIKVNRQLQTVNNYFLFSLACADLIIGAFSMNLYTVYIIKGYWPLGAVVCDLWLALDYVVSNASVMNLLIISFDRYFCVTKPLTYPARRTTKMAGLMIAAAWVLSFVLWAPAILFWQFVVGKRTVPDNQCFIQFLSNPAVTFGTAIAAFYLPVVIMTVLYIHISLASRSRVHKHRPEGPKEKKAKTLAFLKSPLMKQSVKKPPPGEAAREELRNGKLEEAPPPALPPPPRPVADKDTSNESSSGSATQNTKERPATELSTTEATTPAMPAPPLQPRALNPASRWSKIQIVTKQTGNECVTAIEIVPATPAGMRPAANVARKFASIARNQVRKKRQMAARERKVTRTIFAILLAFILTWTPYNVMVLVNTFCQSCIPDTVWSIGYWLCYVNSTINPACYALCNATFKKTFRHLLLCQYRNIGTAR
Consider the following partition of reported EC50 into named classes: Low (below 0.03 µM), Medium (0.03 µM to below 0.05 µM), High (0.05 µM or more)

Cc1cn2ccc(-c3nc(C#N)ccc3-c3cnn(C[C@H]4CC[C@H](F)C4)c3)cc2n1 : Low
N#Cc1ccc(-c2cnn(CC3(F)CCCC3)c2)c(-c2ccn3ncnc3c2)n1 : Low
Cc1ccc(-c2cnn(CC3(C)CCCC3)c2)c(-c2ccc3cc(F)cnc3c2)n1 : Low
N#Cc1ccc(-c2cnn(CC3(F)CCCC3)c2)c(-c2ccn3cc(CF)nc3c2)n1 : Low
Cc1nc2cc(-c3ncc(F)cc3-c3cnn(CC4C[C@@H](F)[C@H](F)C4)c3)ccc2n1C : High

Qu. Into which bin does this compound go? Cc1ccc(-c2cnn(C[C@H]3CC[C@H](F)C3)c2)c(-c2ccc3cccnc3c2)n1 (single isomer, unassigned) [Example 131]
Ans. Medium

Qu. Category of Cc1cc(-c2cnn(CC3(F)CCCC3)c2)c(-c2cnc3c(c2)C(=O)N(CC2CC2)C3)nc1Cl , please.
Ans. High

Qu. // bin(item) where item = Cc1nc2cc(-c3nc(C#N)ccc3-c3cnn(CC4(F)CCCC4)c3)ccc2o1
Ans. High

Qu. Quick check: band for Cc1ccc(-c2cnn(CC3CCC(F)(F)C3)c2)c(-c2ccc3cccnc3c2)n1 (single isomer, unassigned) [Example 130]
Ans. Low

Qu. Sort CC1(Cn2cc(-c3ccc(C#N)nc3-c3ccn4c(F)cnc4c3)cn2)CCCC1 into one of the categories.
Ans. High

Qu. Which EC50 category applies to Cc1ccc(-c2cnn(CC3(F)CCCC3)c2F)c(-c2ccc3cccnc3c2)n1 here?
Ans. Low

Qu. Please indicate the class for Cn1cnc2cc(-c3nc(C#N)ccc3-c3cnn(CC4C[C@H](F)[C@@H](F)C4)c3)ccc21 based on its EC50.
Ans. Medium

Qu. Kindly identify the class of Cc1ccc(-c2cnn(CC3CCCC3)c2)c(-c2cnc3c(c2)ncn3C)n1 .
Ans. High

Qu. # classify by EC50 band: Cc1ccc(-c2cnn(C[C@H]3CC[C@H](F)C3)c2)c(-c2ccc3cccnc3c2)n1 (racemic) [Example 30]
Ans. Medium

Qu. Sort Cn1nnc2cc(-c3nc(C#N)ccc3-c3cnn(CC4(F)CCCC4)c3)ccc21 into one of the categories.
Ans. Medium

Qu. Could you place Cn1cc2ccc(-c3nc(C#N)c(F)cc3-c3cnn(CC4(F)CCCC4)c3)cc2n1 in its proper category? Many thanks.
Ans. High

Qu. Record Cc1ccc(-c2cnn(CC3(C)CCCC3)c2)c(-c2ccc3cn(C)nc3c2)n1 — which class?
Ans. High

Qu. Class (by measured EC50) for Clc1ccc(-c2cnn(CC3CCCC3)c2)c(-c2ccc3cccnc3c2)n1
Ans. Low

Qu. In plain terms, what class is CN1C(=O)c2cc(-c3nc(C#N)ccc3-c3cnn(CC4(F)CCCC4)c3)ccc2C1(C)C ?
Ans. High

Qu. Lab note: which band did Cc1ccc(-c2cnn(CC3C[C@H](F)[C@@H](F)C3)c2)c(-c2ccc3cccnc3c2)n1 (racemic) land in?
Ans. Medium

Qu. Lab note: sort N#Cc1ccc(-c2cnn(CC3(F)CCCC3)c2)c(-c2cnc3c(c2)C(=O)N(CCF)C3)n1 into the matching EC50 band.
Ans. High

Qu. Bin this entry: CC1(Cn2cc(-c3ccc(C#N)nc3-c3ccc4cc(Cl)nnc4c3)cn2)CCCC1
Ans. Low
